Data credit: patent US9481648B2

- assay.system: CYP2C9 (Homo sapiens (Human), UniProt P11712)
- Sequence (P11712 whole entry): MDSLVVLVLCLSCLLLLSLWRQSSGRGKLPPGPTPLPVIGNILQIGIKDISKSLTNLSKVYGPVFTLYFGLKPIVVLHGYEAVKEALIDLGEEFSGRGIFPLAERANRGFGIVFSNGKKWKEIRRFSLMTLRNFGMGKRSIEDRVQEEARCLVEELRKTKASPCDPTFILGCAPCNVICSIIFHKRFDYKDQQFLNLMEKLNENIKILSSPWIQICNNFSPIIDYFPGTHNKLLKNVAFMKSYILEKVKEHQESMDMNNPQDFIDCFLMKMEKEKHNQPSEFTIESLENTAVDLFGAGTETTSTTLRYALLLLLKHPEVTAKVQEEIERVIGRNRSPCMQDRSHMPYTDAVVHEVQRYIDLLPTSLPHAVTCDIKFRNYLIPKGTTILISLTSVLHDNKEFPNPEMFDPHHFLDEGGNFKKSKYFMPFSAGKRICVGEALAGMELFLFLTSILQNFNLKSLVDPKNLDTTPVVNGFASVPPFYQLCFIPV
- experimental.protocol: CYP2C9 inhibition study
- Format: in vitro ADME
- measurement.conditions: human, CYP2C9, 30 min preincubation, 15 μM; read-out: 15 μM % Inh
Measured inhibition at 15 µM, listed per entry for reference.
The answer is to be given in %; state only the numeric part.

Solved entries (count: 2):
[
  {
    "smiles.representation": "COc1cc(Nc2cc(Oc3ccc(NC(=O)Nc4cc(C(C)(C)C)cc(NS(C)(=O)=O)c4OC)c4ccccc34)ccn2)cc(C(=O)NCCN2CCOCC2)c1",
    "inhibition at 15 µM [%]": 55
  },
  {
    "smiles.representation": "COCCOCCOCCOc1cc(Nc2nccc(Oc3ccc(NC(=O)Nc4cc(C(C)(C)C)cc(NS(C)(=O)=O)c4OC)c4ccccc34)n2)cc(OC)c1",
    "inhibition at 15 µM [%]": 41
  }
]

Task: Indicate the recorded inhibition at 15 µM value for this compound: COc1c(NC(=O)Nc2ccc(Oc3ccnc(Nc4ccccc4)c3)c3ccccc23)cc(C(C)(C)C)cc1C(=O)NC1COC1
Output: 36

====

Measured pIC50 on GSK 3α (Homo sapiens (Human)) follows.
// pIC50 here means minus log10 of the molar concentration (mol/L)

Take a look at these entries with their results.
[
  {
    "smiles.representation": "CNC(=O)c1cc(N2CCOCC2)cc(NC(=O)Nc2ccc(Oc3ccnc(Nc4cc(OC)cc(OCCOCCOCCOC)c4)n3)c3ccccc23)c1OC",
    "pIC50": 6.20
  },
  {
    "smiles.representation": "COc1cc(Nc2cc(Oc3ccc(NC(=O)Nc4cc(C(C)(C)C)cc(NS(C)(=O)=O)c4OC)c4ccccc34)ccn2)cc(C(=O)NCCN2CCOCC2)c1",
    "pIC50": 5.35
  }
]

Continue with the next compound.
Task: System GSK 3α (Homo sapiens (Human)). Read-out pIC50. Item COc1cc(Nc2nccc(Oc3ccc(NC(=O)Nc4cc(C(C)(C)C)cc(NS(C)(=O)=O)c4OC)c4ccccc34)n2)cc(C(=O)NCCN2CCOCC2)c1 . Report value.
Output: 6.27

====

Assay read-out IC50; system under study: Syk (Homo sapiens (Human), UniProt P43405).
The answer is to be given in nM; state only the numeric part.

Below are worked cases with known answers.
[
  {
    "compound": "COCCOCCOCCOc1cc(Nc2nccc(Oc3ccc(NC(=O)Nc4cc(C(C)(C)C)cc(NS(C)(=O)=O)c4-c4ccccc4)c4ccccc34)n2)cc(OC)c1 [83(a)]",
    "IC50 (nM)": 1160
  },
  {
    "compound": "C#Cc1cc(Nc2cc(Oc3ccc(NC(=O)Nc4cc(C(C)(C)C)cc(C(N)=O)c4OC)c4ccccc34)ccn2)cc(C(=O)NCCOCCOCCOC)c1 [Example 53]",
    "IC50 (nM)": 1270
  },
  {
    "compound": "COCCOCCOCCOc1cc(Nc2nccc(Oc3ccc(NC(=O)Nc4cc(C(C)(C)C)cc(C(=O)NCC(=O)OC)c4OC)c4ccccc34)n2)cc(OC)c1 [Example 37]",
    "IC50 (nM)": 43
  },
  {
    "compound": "COCCOCCOCCOc1cc(Nc2cc(Oc3ccc(NC(=O)Nc4cc(C(C)(C)C)cc(C(=O)NCCN(C)C)c4OC)c4ccccc34)ccn2)cc(OC)c1 [Example 76]",
    "IC50 (nM)": 35
  },
  {
    "compound": "COCCOCCOCCOc1cc(Nc2nccc(Oc3ccc(NC(=O)Nc4cc(C(C)(C)C)cc(C(=O)NC5COC5)c4OC)c4ccccc34)n2)cc(OC)c1 [Example 51]",
    "IC50 (nM)": 49
  }
]

# input for lookup
Task: Quote Syk (Homo sapiens (Human), UniProt P43405) IC50 for entry COCCOCCOCCOc1cc(Nc2nccc(Oc3ccc(NC(=O)Nc4cc(C(C)(C)C)cc(NS(C)(=O)=O)c4OC)c4ccccc34)n2)cc(OC)c1 [Example 4] .
Output: 86

====

- assay.system: GSK 3α (Homo sapiens (Human), UniProt P49840)
- Sequence (P49840 whole entry): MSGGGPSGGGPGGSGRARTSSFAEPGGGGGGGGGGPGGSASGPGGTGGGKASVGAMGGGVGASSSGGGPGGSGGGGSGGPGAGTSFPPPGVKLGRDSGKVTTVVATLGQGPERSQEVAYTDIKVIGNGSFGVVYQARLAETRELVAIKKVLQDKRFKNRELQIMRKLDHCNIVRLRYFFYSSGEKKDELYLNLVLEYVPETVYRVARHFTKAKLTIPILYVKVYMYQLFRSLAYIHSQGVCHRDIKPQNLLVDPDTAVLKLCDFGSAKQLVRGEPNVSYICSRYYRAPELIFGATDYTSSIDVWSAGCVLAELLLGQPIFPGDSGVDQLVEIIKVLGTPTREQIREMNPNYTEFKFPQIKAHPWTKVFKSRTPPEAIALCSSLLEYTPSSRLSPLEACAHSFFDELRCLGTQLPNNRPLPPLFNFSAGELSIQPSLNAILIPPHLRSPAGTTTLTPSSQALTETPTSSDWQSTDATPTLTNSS
Quick reference for IC50 among some molecules
Quick reminder: number only, in nM, skip the unit.

Below are worked cases with known answers.
[
  {
    "molecule": "COCCOCCOCCOc1cc(Nc2nccc(Oc3ccc(NC(=O)Nc4cc(C(C)(C)C)cc(C(=O)NC5CC5)c4OC)c4ccccc34)n2)cc(OC)c1 [Example 33]",
    "IC50 (nM)": 828
  },
  {
    "molecule": "CNC(=O)c1cc(C(C)(C)C)cc(NC(=O)Nc2ccc(Oc3ccnc(Nc4cc(OC)cc(OCCOCCOCCOC)c4)n3)c3ccccc23)c1OC [Example 13]",
    "IC50 (nM)": 824
  },
  {
    "molecule": "COCCOCCOCCOc1cc(Nc2nccc(Oc3ccc(NC(=O)Nc4cc(C(C)(C)C)cc(C(=O)NCCO)c4OC)c4ccccc34)n2)cc(OC)c1 [Example 35]",
    "IC50 (nM)": 597
  },
  {
    "molecule": "COCCOCCOCCOc1cc(Nc2cc(Oc3ccc(NC(=O)Nc4cc(C(C)(C)C)cc(C(N)=O)c4OC)c4ccccc34)ccn2)cc(OC)c1 [Example 34]",
    "IC50 (nM)": 9330
  },
  {
    "molecule": "COc1cc(Nc2nccc(Oc3ccc(NC(=O)Nc4cc(C(C)(C)C)cc(NS(C)(=O)=O)c4OC)c4ccccc34)n2)cc(OCCOCCOCCN(C)C)c1 [Example 15]",
    "IC50 (nM)": 905
  }
]

Turning to the following molecule.
Task: Look up GSK 3α (Homo sapiens (Human), UniProt P49840) data: IC50 of C#Cc1cc(Nc2nccc(Oc3ccc(NC(=O)Nc4cc(C(C)(C)C)cc(C(=O)NC)c4OC)c4ccccc34)n2)cc(C(=O)N[C@H](C)CN2CCOCC2)c1 [Example 61] , then report it.
Output: 372

====

Reported pIC50 values for a set of compounds
- assay.system: CYP2C9 (Homo sapiens (Human))
- experimental.protocol: CYP2C9 inhibition study
- Format: in vitro ADME
- measurement.conditions: CYP2C9, 0 min preincubation
pIC50: −log10 of the molar value.

Please review the entries below; each comes with its answer.
[
  {
    "compound": "COCCOCCOCCOc1cc(Nc2nccc(Oc3ccc(NC(=O)Nc4cc(C(C)(C)C)cc(NS(C)(=O)=O)c4OC)c4ccccc34)n2)cc(OC)c1 [Example 4]",
    "pIC50": "< 4.82"
  },
  {
    "compound": "COc1c(NC(=O)Nc2ccc(Oc3ccnc(Nc4ccccc4)c3)c3ccccc23)cc(C(C)(C)C)cc1C(=O)NC1COC1 [Example 75]",
    "pIC50": "< 4.82"
  }
]

Next compound, please.
Task: Item COc1cc(Nc2cc(Oc3ccc(NC(=O)Nc4cc(C(C)(C)C)cc(NS(C)(=O)=O)c4OC)c4ccccc34)ccn2)cc(C(=O)NCCN2CCOCC2)c1 [Example 27] : provide pIC50
Output: < 4.82

====

Measured pIC50 (p38 MAPKα (MAPK14) (Homo sapiens (Human)))
Answer as the number alone; pIC50 is minus log10 of concentration in mol/L.

[
  {
    "smiles.representation": "COc1cc(Nc2nccc(Oc3ccc(NC(=O)Nc4cc(C(C)(C)C)cc(NS(C)(=O)=O)c4OC)c4ccccc34)n2)cc(C(=O)NCCN2CCOCC2)c1",
    "pIC50": 7.47
  }
]

Task: Tell me pIC50 of COCCOCCOCCOCCOCCOCCOCCOc1cc(Nc2cc(Oc3ccc(NC(=O)Nc4cc(C(C)(C)C)cc(NS(C)(=O)=O)c4OC)c4ccccc34)ccn2)cc(OC)c1 when tested on p38 MAPKα (MAPK14) (Homo sapiens (Human)).
Sequence (Q16539 whole entry): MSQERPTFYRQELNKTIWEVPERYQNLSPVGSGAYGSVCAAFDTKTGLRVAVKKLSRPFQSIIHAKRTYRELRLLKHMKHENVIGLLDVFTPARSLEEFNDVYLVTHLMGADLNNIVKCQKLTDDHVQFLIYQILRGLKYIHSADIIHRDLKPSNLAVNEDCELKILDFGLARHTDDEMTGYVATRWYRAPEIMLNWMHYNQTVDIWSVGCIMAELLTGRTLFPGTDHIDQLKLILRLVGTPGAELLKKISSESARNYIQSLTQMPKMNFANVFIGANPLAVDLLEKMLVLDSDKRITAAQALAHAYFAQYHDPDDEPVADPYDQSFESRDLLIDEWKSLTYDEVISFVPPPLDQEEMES
Output: 6.84

Task: Report pIC50 under test system p38 MAPKα (MAPK14) (Homo sapiens (Human)) for COCCOCCOCCOc1cc(Nc2nccc(Oc3ccc(NC(=O)Nc4cc(C(C)(C)C)cc(NS(C)(=O)=O)c4OC)c4ccccc34)n2)cc(OC)c1 .
Output: 7.04

Task: GET pIC50 where system = p38 MAPKα (MAPK14) (Homo sapiens (Human)) and item = COCCOCCOc1cc(Nc2nccc(Oc3ccc(NC(=O)Nc4cc(C(C)(C)C)cc(NS(C)(=O)=O)c4OC)c4ccccc34)n2)cc(OC)c1
Output: 7.16

====

- System: non-mutant kinases
- Assay type: binding
- measurement.conditions: 50 nM; non-mutant kinases with % Ctrl <35
Each entry below carries its reported number of individual kinase hits, S(35).
Output: the number by itself.

[
  {
    "compound": "COc1c(NC(=O)Nc2ccc(Oc3ccnc(Nc4ccccc4)c3)c3ccccc23)cc(C(C)(C)C)cc1C(=O)NC1COC1",
    "number of individual kinase hits, S(35)": 39
  },
  {
    "compound": "COCC(=O)Nc1cc(Oc2ccc(NC(=O)Nc3cc(C(C)(C)C)nn3-c3ccc(C)cc3)c3ccccc23)ccn1 [Reference Compound, reference compound]",
    "number of individual kinase hits, S(35)": 67
  },
  {
    "compound": "C#Cc1cc(Nc2nccc(Oc3ccc(NC(=O)Nc4cc(C(C)(C)C)cc(NS(C)(=O)=O)c4OC)c4ccccc34)n2)cc(C(=O)NCCOCCOCCOC)c1",
    "number of individual kinase hits, S(35)": 27
  }
]

Could you now look at the following compound, please?
Task: Give the reported number of individual kinase hits, S(35) for this compound. COCCOCCOCCNC(=O)c1cc(Nc2cc(Oc3ccc(NC(=O)Nc4cc(C(C)(C)C)cc(NS(C)(=O)=O)c4OC)c4ccccc34)ccn2)cc(OC)c1
Output: 36
